Assay: Primary qHTS for inhibitors of MERS-S pseudo-typed particle cell entry (AID 1479149); further: nearly all actives have a fitted effect of over 60% in size
Conditions: MERS-S pseudotyped particle entry, luciferase; series mostly up to 57.1 µM
Results filed as inconclusive are left out. Activity calls are given as the source filed them. The call rests on the fitted dose curve.
Pick one: 1 (yes) for active, 0 (no) for inactive

Exam item: Entry NC(=O)c1cccc2cn(-c3ccc(C4CCCNC4)cc3)nc12 (stereo not given) : call = ?
Marked response: 1 (yes)

Exam item: Recorded call for CCCCOC(=O)C(=O)Nc1cccc(-c2nn[nH]n2)c1 ?
Marked response: 0 (no)

Exam item: Per the assay record, what outcome was assigned to CNc1ncc(-c2ccc3c(=O)c(C(=O)O)cn(C4CC4)c3c2C)cc1C ?
Marked response: 0 (no)

Exam item: Record request — test call for CC(OC(=O)NCC1(CC(=O)O)CCCCC1)OC(=O)C(C)C (stereo not given)
Marked response: 0 (no)

Exam item: Could you kindly confirm the outcome this assay logged for C#C[C@]1(O)CC[C@H]2[C@@H]3CCC4=CC(=O)CCC4[C@H]3CC[C@@]21CC (stereo not given in full) ?
Marked response: 0 (no)

Exam item: Assay result, entry CC(C)c1nc(N(C)S(C)(=O)=O)nc(-c2ccc(F)cc2)c1/C=C/[C@@H](O)C[C@@H](O)CC(=O)O — outcome?
Marked response: 0 (no)

Exam item: Per the records of this test, what outcome belongs to CCCCCCCCCCCCCCCC(=O)OC[C@@H](O)[C@H]1OC[C@H](O)[C@H]1O ?
Marked response: 0 (no)

Exam item: Assay result, entry Cc1ccc(/C=C2\C(=O)C3(C)CCC2C3(C)C)cc1 (stereo not given) — outcome?
Marked response: 0 (no)

Exam item: Outcome logged for O=C1O[C@H]2[C@H](OC(O)[C@@H]2O)[C@@H]1O (stereo not given in full) in this assay:
Marked response: 0 (no)

Exam item: In this assay, the call recorded for C[C@]12CCC3c4ccc(OS(=O)(=O)O)cc4CCC3C1CCC2=O (stereo not given in full) was what?
Marked response: 0 (no)

---

Target: Rap guanine nucleotide exchange factor 3 (Homo sapiens) (UniProt O95398)
Assay: Counterscreen qHTS for agonist of cAMP-regulated guanine nucleotide exchange factor 3 (EPAC1) (AID 1645889); further: % of control where 0% means no effect; nearly all actives have a fitted effect of over 40% in size
Details: EPAC1 Rap1B-BODIPY-GDP exchange, fluorescence; series mostly up to 154 µM
Records with an inconclusive call do not appear. Calls of active or inactive are those of the source. Calls follow the shape of the dose curve; as a rule, active = well fitted activation curve with a large enough effect; inconclusive = small, poorly fitted or top-dose-only effect, or another doubt; inactive = no such curve, though single readings can be large or run the other way.
READOUT_TYPE: activation

Some solved entries appear below for comparison.
> print(dat)
                                   compound                       experimental.system  readout.type                 measured.value
1  Cn1cc(/C=C2\C(=O)NC(=O)N(c3ccccc3)C2=O)c2ccccc21  Rap guanine nucleotide exchange factor 3 (Homo sapiens) (UniProt O95398)    activation                       inactive
2  CCN(CC)c1ccc(N=Cc2c(O)n(CCC3=CCCCC3)c(=O)[nH]c2=O)cc1  Rap guanine nucleotide exchange factor 3 (Homo sapiens) (UniProt O95398)    activation                       inactive
3  Cn1cccc1/C=C1\C(=O)NC(=O)N(Cc2ccco2)C1=O  Rap guanine nucleotide exchange factor 3 (Homo sapiens) (UniProt O95398)    activation  7.31% [at 30.8 µM] (inactive)
4  CC(=O)C1C2c3ccccc3OC1(C)N=c1s/c(=C/c3cn(C)nc3C)c(=O)n12 (stereo not drawn)  Rap guanine nucleotide exchange factor 3 (Homo sapiens) (UniProt O95398)    activation                       inactive
5      Cc1ccccc1OCC(=O)N1CCN(CCc2ccccn2)CC1  Rap guanine nucleotide exchange factor 3 (Homo sapiens) (UniProt O95398)    activation                       inactive
6  O=C1NC(=O)N(Cc2ccccc2)C(=O)/C1=C\c1ccco1  Rap guanine nucleotide exchange factor 3 (Homo sapiens) (UniProt O95398)    activation  12.3% [at 30.8 µM] (inactive)

Exam item: Name the reported activation value associated with the compound CC(C)CCn1c(=O)c(C(=O)Nc2ccccc2S(N)(=O)=O)c(O)c2ccccc21
Marked response: inactive

Exam item: // returns reported activation for input Cc1ccc(C)c(Cn2c(C(=O)O)c(C=O)c3ccccc32)c1
Marked response: 9.64% [at 30.8 µM] (inactive)

Exam item: What measured activation goes with CCOC(=O)[C@]12Cc3cc(Cl)ccc3[C@H]1N(CC(=O)OC)C(=O)c1ccccc12 ?
Marked response: inactive

Exam item: Entry CC1=C(O)C(=O)C=C2C1=CC=C1C2(C)CCC2(C)C3CC(C)(C(=O)O)CCC3(C)CCC12C (stereo not drawn) has what activation?
Marked response: inactive

Exam item: Which activation value is on record for Cn1cccc1/C=C1/C(=O)NC(=S)N(Cc2ccc(F)cc2)C1=O ?
Marked response: 10.8% [at 30.8 µM] (inactive)

Exam item: I am curious: what activation value has been reported for COc1ccc(N2C(=O)NC(=O)/C(=C/c3ccc([N+](=O)[O-])s3)C2=O)cc1 ?
Marked response: inactive

Exam item: For O=c1[nH]c(=S)n(-c2ccccc2F)c(O)c1C=Nc1ccc(N2CCOCC2)cc1 , what is its reported activation?
Marked response: 32% [at 30.8 µM] (inactive)

Exam item: Sample Clc1cc(Cl)c(-c2cc(Cl)c(Cl)cc2Cl)cc1Cl — what was its activation?
Marked response: inactive

Exam item: Could you tell me which activation is on file for O=[N+]([O-])c1ccc(CN2CC=C(c3ccccc3)CC2)cc1 ?
Marked response: 8.24% [at 30.8 µM] (inactive)

Exam item: Please give the measured activation for this compound: CCn1nc(/C=C/c2ccccc2)nc2c(=O)n(C)c(=O)nc1-2
Marked response: inactive

Exam item: Query (compound): CC(C)C/C(=N/O)c1cn(C)c2ccccc12 ; field requested: activation
Marked response: inactive

Exam item: Quick check: activation of Cn1cccc1/C=C1/C(=O)NC(=O)N(Cc2ccccc2)C1=O ?
Marked response: inactive

---

Assay: Confirmatory qHTS for VERO E6 Cytotoxicity Assay: Counterscreen for SARS-CoV-2 CPE Assay (AID 1508605); further: nearly all actives have a fitted effect of over 60% in size
Details: cell viability luminescence; series mostly up to 20 µM
Inconclusive results are not listed. Calls of active or inactive are those of the source. Calls follow the shape of the full dose curve.
Hello, when you answer, please use one of the following outcomes: TRUE (active), FALSE (inactive)

COMPOUND	CAT
COCCNCc1ccc(-c2cc3nccc(Oc4ccc(NC(=O)C5(C(=O)Nc6ccc(F)cc6)CC5)cc4F)c3s2)nc1	TRUE
COc1cc2nc(N3CCCCC3)nc(NC3CCN(C)CC3)c2cc1OC	TRUE
COc1cc(N(C)CCN(C)C)c(N)cc1Nc1nccc(-c2cn(C)c3ccccc23)n1	FALSE
CC1(C)CC[C@]23CO[C@@]4(CCC5[C@@]6(C)CC[C@H](O[C@@H]7OC[C@H](O[C@@H]8O[C@H](CO)[C@@H](O)[C@H](O)[C@H]8O[C@@H]8OC[C@@H](O)[C@H](O)[C@H]8O)[C@H](O)[C@H]7O[C@@H]7O[C@H](CO)[C@@H](O)[C@H](O)[C@H]7O)[C@@](C)(CO)C6CC[C@@]5(C)[C@]4(C)C[C@H]2O)[C@@H]3C1 (stereo partly specified)	TRUE
COC(=O)[C@@]12OC[C@]34[C@H]([C@@H](O)[C@@H]1O)[C@@]1(C)CC(=O)C(O)=C(C)[C@@H]1C[C@H]3OC(=O)[C@H](OC(=O)/C=C(\C)C(C)C)[C@@H]24	TRUE

Exam item: What outcome does the record of this test show for CCN(CC)CCN(Cc1ccc(-c2ccc(C(F)(F)F)cc2)cc1)C(=O)Cn1c(SCc2ccc(F)cc2)nc(=O)c2c1CCC2 ?
Marked response: TRUE

---

Quick list: Potency per entry.
Assay: VSVG counterscreen qHTS to identify inhibitors of SARS-CoV-2 cell entry (AID 1645847); further: potency means the concentration at half of the fitted maximal effect; nearly all actives have a fitted effect of over 65% in size
Details: VSV-G pseudotyped particle entry, luciferase; series mostly up to 57.2 µM
From the text: Assay Provider: Wei Zheng, Ph.D. National Center for Advancing Translational Sciences, National Institute of Health, Rockville, MD. SARS-CoV-2 spike protein, within the viral envelope, mediates viral attachment and infection of host cells. The SARS-CoV-2 spike protein specifically binds to the host receptor ACE2 (Angiotensin-converting enzyme 2). […] 11. […] Read luminescence signal (ViewLux plate reader, PerkinElmer). […]
Inconclusive results are not listed. Active and inactive are the calls of the source. Calls follow the shape of the full dose curve.

> print(dat)
                                   compound     measured.value
1  C=C(C)[C@@H]1CCC(C)=C[C@H]1c1c(O)cc(CCCCC)cc1O  24100 nM (active)
2  Cc1cccc(/C=N/Nc2cc(N3CCOCC3)nc(OCCc3ccccn3)n2)c1   7640 nM (active)

Exam item: I am curious: what Potency value has been reported for C[C@H]1COCCN1c1cc(C2(S(=O)(=O)C3CC3)CC2)nc(-c2ccc(NC(=S)NCCO)cc2)n1 ?
Marked response: 304 nM (active)
